Molecular target: Gonadotropin-releasing hormone receptor (Rattus norvegicus, UniProt P30969)
Sequence (P30969 whole entry): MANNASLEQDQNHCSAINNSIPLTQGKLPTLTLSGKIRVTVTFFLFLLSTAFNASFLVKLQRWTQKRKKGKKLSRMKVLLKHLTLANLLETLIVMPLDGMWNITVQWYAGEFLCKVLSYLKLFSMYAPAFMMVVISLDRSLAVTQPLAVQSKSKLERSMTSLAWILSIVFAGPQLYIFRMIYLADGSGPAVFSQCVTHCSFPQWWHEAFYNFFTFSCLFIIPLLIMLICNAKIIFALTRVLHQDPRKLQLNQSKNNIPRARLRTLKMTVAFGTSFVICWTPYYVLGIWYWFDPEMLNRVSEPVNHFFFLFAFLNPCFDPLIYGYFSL
A collection of molecules and their measured pKi
As a rule, pKi stands for the negative log10 of the concentration, concentration in M.

[
  {
    "molecule": "CCNC(=O)[C@@H]1CCCN1C(=O)[C@H](CCCN=C(N)N)NC(=O)[C@H](CC(C)C)NC(=O)[C@@H](Cc1c[nH]c2ccccc12)NC(=O)[C@H](Cc1ccc(O)cc1)NC(=O)[C@H](CO)NC(=O)[C@H](Cc1c[nH]c2ccccc12)NC(=O)CCc1ccc(F)c(F)c1",
    "pKi": 10.28
  },
  {
    "molecule": "CCNC(=O)[C@H]1CCCN1C(=O)[C@H](CCCN=C(N)N)NC(=O)[C@H](CC(C)C)NC(=O)[C@@H](Cc1c[nH]c2ccccc12)NC(=O)[C@H](Cc1ccc(O)cc1)NC(=O)[C@@H]1CCCN1C(=O)[C@H](Cc1c[nH]c2ccccc12)NC(=O)CCc1ccc(F)cc1",
    "pKi": 9.08
  },
  {
    "molecule": "CCNC(=O)[C@@H]1CCCN1C(=O)[C@H](CCCN=C(N)N)NC(=O)[C@H](CC(C)C)NC(=O)[C@@H](Cc1c[nH]c2ccccc12)NC(=O)[C@H](Cc1ccc(O)cc1)NC(=O)[C@H](CO)NC(=O)[C@@H](Cc1c[nH]c2ccccc12)NC(=O)c1cc2ccccc2[nH]1",
    "pKi": 10.12
  }
]

# lookup: CCNC(=O)[C@H]1CCCN1C(=O)[C@H](CCCN=C(N)N)NC(=O)[C@H](CC(C)C)NC(=O)[C@@H](CCCCNC(=O)c1cccnc1)NC(=O)[C@H](Cc1ccc(O)cc1)NC(=O)[C@H](CO)NC(=O)C(Cc1c[nH]c2ccccc12)NC(=O)CCc1ccc(F)cc1 (some centres undefined) on Gonadotropin-releasing hormone receptor (Rattus norvegicus, UniProt P30969), pKi = 9.46

###

Target: Gonadotropin-releasing hormone receptor (Rattus norvegicus, UniProt P30969)
Where a SMILES comes first, the peptide text is derived from it. [ ]: non-standard residue; d: D form. The star is where a group is joined. Propanoyl(3-(4-Cl-Ph)) = O=C(CCc1ccc(Cl)cc1)*; pGlu = O=C1CC[C@@H](C(=O)O)N1
Decide using Ki alone. Strictly below 0.02 nM: MET. Equal to or above 0.02 nM: NOT MET.

[
  {
    "compound": "CCNC(=O)[C@H]1CCCN1C(=O)[C@H](CCCN=C(N)N)NC(=O)[C@H](CC(C)C)NC(=O)[C@@H](Cc1c[nH]c2ccccc12)NC(=O)[C@H](Cc1ccc(O)cc1)NC(=O)[C@@H]1CC(O)CN1C(=O)[C@H](Cc1c[nH]c2ccccc12)NC(=O)CCc1ccc(F)cc1 (some centres not stated)",
    "target.under.test": "Gonadotropin-releasing hormone receptor (Rattus norvegicus, UniProt P30969)",
    "class.label": "NOT MET"
  },
  {
    "compound": "CCNC(=O)[C@H]1CCCN1C(=O)[C@H](CCCN=C(N)N)NC(=O)[C@H](CC(C)C)NC(=O)[C@@H](CCCCNC(=O)c1cccnc1)NC(=O)[C@H](Cc1ccc(O)cc1)N(C)C(=O)[C@H](CO)NC(=O)[C@H](Cc1c[nH]c2ccccc12)NC(=O)CCc1cccc(F)c1",
    "target.under.test": "Gonadotropin-releasing hormone receptor (Rattus norvegicus, UniProt P30969)",
    "class.label": "NOT MET"
  },
  {
    "compound": "CCNC(=O)[C@H]1CCCN1C(=O)[C@H](CCCN=C(N)N)NC(=O)[C@H](CC(C)C)NC(=O)[C@@H](CCCCNC(=O)c1cccnc1)NC(=O)[C@H](Cc1ccc(O)cc1)N(C)C(=O)[C@H](CO)NC(=O)[C@H](Cc1c[nH]c2ccccc12)NC(=O)CCc1ccc(F)cc1",
    "target.under.test": "Gonadotropin-releasing hormone receptor (Rattus norvegicus, UniProt P30969)",
    "class.label": "MET"
  },
  {
    "compound": "CCNC(=O)[C@H]1CCCN1C(=O)[C@H](CCCCNC(C)C)NC(=O)[C@H](CC(C)C)NC(=O)[C@@H](CCCCNC(=O)c1cccnc1)NC(=O)[C@H](Cc1ccc(O)cc1)N(C)C(=O)[C@H](CO)NC(=O)[C@H](Cc1cccc2ccccc12)NC(=O)CCc1ccc(F)cc1",
    "target.under.test": "Gonadotropin-releasing hormone receptor (Rattus norvegicus, UniProt P30969)",
    "class.label": "MET"
  },
  {
    "compound": "CCNC(=O)[C@@H]1CCCN1C(=O)[C@H](CCCN=C(N)N)NC(=O)[C@H](CC(C)C)NC(=O)[C@@H](Cc1c[nH]c2ccccc12)NC(=O)[C@H](Cc1ccc(O)cc1)NC(=O)[C@H](CO)NC(=O)[C@@H](Cc1ccc(O)cc1)NC(=O)CCc1ccc(Cl)cc1 ({Propanoyl(3-(4-Cl-Ph))}-[dY]SY[dW]LRP-NHEt)",
    "target.under.test": "Gonadotropin-releasing hormone receptor (Rattus norvegicus, UniProt P30969)",
    "class.label": "MET"
  }
]

Record CCNC(=O)[C@@H]1CCCN1C(=O)[C@H](CCCN=C(N)N)NC(=O)[C@H](CC(C)C)NC(=O)[C@@H](Cc1c[nH]c2ccccc12)NC(=O)[C@H](Cc1ccc(O)cc1)NC(=O)[C@H](CO)NC(=O)[C@H](Cc1c[nH]c2ccccc12)NC(=O)[C@H](Cc1ccccc1)NC(=O)[C@@H]1CCC(=O)N1 ([pGlu]FWSY[dW]LRP-NHEt) : is its Ki strictly below 0.02 nM? NOT MET

Record CCNC(=O)[C@H]1CCCN1C(=O)[C@H](CCCN=C(N)N)NC(=O)[C@H](CC(C)C)NC(=O)[C@@H](Cc1c[nH]c2ccccc12)NC(=O)[C@H](Cc1ccc(O)cc1)NC(=O)[C@H](CO)NC(=O)C(Cc1cccc2ccccc12)NC(=O)CCc1ccc(F)cc1 (some centres not stated) : is its Ki strictly below 0.02 nM? MET

###

A collection of compounds and their measured Ki
Target: Gonadotropin-releasing hormone receptor (Rattus norvegicus, UniProt P30969)
Sequence (P30969 whole entry): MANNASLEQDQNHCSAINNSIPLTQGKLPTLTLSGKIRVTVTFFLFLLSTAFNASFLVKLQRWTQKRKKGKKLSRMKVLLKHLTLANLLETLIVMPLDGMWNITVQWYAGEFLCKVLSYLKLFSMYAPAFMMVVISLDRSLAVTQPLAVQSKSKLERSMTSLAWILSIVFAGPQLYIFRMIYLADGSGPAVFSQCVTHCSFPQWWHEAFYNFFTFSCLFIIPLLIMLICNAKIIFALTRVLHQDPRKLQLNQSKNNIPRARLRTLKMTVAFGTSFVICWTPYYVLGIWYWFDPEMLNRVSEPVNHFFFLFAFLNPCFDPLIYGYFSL
Where a SMILES comes first, the peptide text is derived from it. [ ]: non-standard residue; d: D form. The star is where a group is joined. Propanoyl(3-(4-F-phenyl)) = O=C(CCc1ccc(F)cc1)*; Propanoyl(3-(4-Cl-Ph)) = O=C(CCc1ccc(Cl)cc1)*; dPhe(4-Cl) = N[C@H](Cc1ccc(Cl)cc1)C(=O)O; Desaminotyrosyl = O=C(CCc1ccc(O)cc1)*; d1Nal = N[C@H](Cc1cccc2ccccc12)C(=O)O; d2Nal = N[C@H](Cc1ccc2ccccc2c1)C(=O)O; Lys(iPr) = CC(C)NCCCC[C@H](N)C(=O)O; NMeY = CN[C@@H](Cc1ccc(O)cc1)C(=O)O; d3Pal = N[C@H](Cc1cccnc1)C(=O)O; Nicotinoyl = O=C(c1cccnc1)*; X1 = O=C(Cc1ccc(O)cc1)*
Hi! Could you send only the number? It should be in nM, unit omitted.

Examples from the recorded data:
[
  {
    "compound": "CCNC(=O)[C@H]1CCCN1C(=O)[C@H](CCCN=C(N)N)NC(=O)[C@H](CC(C)C)NC(=O)[C@@H](CCCCNC(=O)c1cccnc1)NC(=O)[C@H](Cc1ccc(O)cc1)N(C)C(=O)[C@H](CO)NC(=O)[C@H](Cc1c[nH]c2ccccc12)NC(=O)CCc1ccc(F)cc1F",
    "target.under.test": "Gonadotropin-releasing hormone receptor (Rattus norvegicus, UniProt P30969)",
    "value": 0.02
  },
  {
    "compound": "CCNC(=O)[C@@H]1CCCN1C(=O)[C@H](CCCN=C(N)N)NC(=O)[C@H](CC(C)C)NC(=O)[C@@H](Cc1c[nH]c2ccccc12)NC(=O)[C@H](Cc1ccc(O)cc1)NC(=O)[C@H](CO)NC(=O)[C@H](Cc1c[nH]c2ccccc12)NC(=O)CCc1ccc(O)cc1 (Desaminotyrosyl-WSY[dW]LRP-NHEt)",
    "target.under.test": "Gonadotropin-releasing hormone receptor (Rattus norvegicus, UniProt P30969)",
    "value": 0.085
  },
  {
    "compound": "CCNC(=O)[C@H]1CCCN1C(=O)[C@H](CCCN=C(N)N)NC(=O)[C@H](CC(C)C)NC(=O)[C@@H](Cc1c[nH]c2ccccc12)NC(=O)[C@H](Cc1ccc(O)cc1)NC(=O)[C@H](CO)NC(=O)[C@H](Cc1cccc2ccccc12)NC(=O)CCc1ccc(F)cc1",
    "target.under.test": "Gonadotropin-releasing hormone receptor (Rattus norvegicus, UniProt P30969)",
    "value": 0.017
  }
]

// Ki lookup, compound = "CCNC(=O)[C@H]1CCCN1C(=O)[C@H](CCCN=C(N)N)NC(=O)[C@H](CC(C)C)NC(=O)[C@@H](Cc1c[nH]c2ccccc12)NC(=O)[C@H](Cc1ccc(O)cc1)NC(=O)[C@H](CO)N(C)C(=O)[C@H](Cc1c[nH]c2ccccc12)NC(=O)CCc1ccc(F)cc1" , result: 0.135

// Ki lookup, compound = "CCNC(=O)[C@@H]1CCCN1C(=O)[C@H](CCCN=C(N)N)NC(=O)[C@H](CC(C)C)NC(=O)[C@@H](Cc1c[nH]c2ccccc12)NC(=O)[C@H](Cc1ccc(O)cc1)NC(=O)[C@H](CO)NC(=O)[C@H](Cc1c[nH]c2ccccc12)NC(=O)Cc1ccc(C(F)(F)F)cc1" , result: 0.646

// Ki lookup, compound = "CCNC(=O)[C@H]1CCCN1C(=O)[C@H](CCCN=C(N)N)NC(=O)[C@H](CC(C)C)NC(=O)[C@@H](Cc1c[nH]c2ccccc12)NC(=O)[C@H](Cc1ccc(O)cc1)N(C)C(=O)[C@H](CO)NC(=O)[C@H](Cc1c[nH]c2ccccc12)NC(=O)CCc1ccc(F)cc1" , result: 0.033

// Ki lookup, compound = "CCNC(=O)[C@@H]1CCCN1C(=O)[C@H](CCCN=C(N)N)NC(=O)[C@H](CC(C)C)NC(=O)[C@@H](Cc1c[nH]c2ccccc12)NC(=O)[C@H](Cc1ccc(O)cc1)NC(=O)[C@H](CO)NC(=O)[C@H](Cc1c[nH]c2ccccc12)NC(=O)c1cc2cc(F)ccc2[nH]1" , result: 12.3

// Ki lookup, compound = CCNC(=O)[C@@H]1CCCN1C(=O)[C@H](CCCN=C(N)N)NC(=O)[C@H](CC(C)C)NC(=O)[C@@H](Cc1c[nH]c2ccccc12)NC(=O)[C@H](Cc1ccc(O)cc1)NC(=O)[C@H](CO)NC(=O)[C@H](Cc1c[nH]c2ccccc12)NC(=O)Cc1ccc(O)cc1 (X1-WSY[dW]LRP-NHEt) , result: 0.813

// Ki lookup, compound = CC(=O)N[C@H](Cc1ccc2ccccc2c1)C(=O)N[C@H](Cc1ccc(Cl)cc1)C(=O)N[C@H](Cc1cccnc1)C(=O)N[C@@H](CO)C(=O)N(C)[C@@H](Cc1ccc(O)cc1)C(=O)N[C@H](CCCCNC(=O)c1cccnc1)C(=O)N[C@@H](CC(C)C)C(=O)N[C@@H](CCCCNC(C)C)C(=O)N1CCC[C@H]1C(=O)N[C@H](C)C(N)=O (Ac-[d2Nal][dPhe(4-Cl)][d3Pal]S[NMeY][dK](Nicotinoyl)L[Lys(iPr)]P[dA]-NH2) , result: 0.032

// Ki lookup, compound = CCNC(=O)[C@@H]1CCCN1C(=O)[C@H](CCCN=C(N)N)NC(=O)[C@H](CC(C)C)NC(=O)[C@@H](Cc1c[nH]c2ccccc12)NC(=O)[C@H](Cc1ccc(O)cc1)NC(=O)[C@H](CO)NC(=O)[C@H](Cc1ccc(O)cc1)NC(=O)CCc1ccc(Cl)cc1 ({Propanoyl(3-(4-Cl-Ph))}-YSY[dW]LRP-NHEt) , result: 0.076

// Ki lookup, compound = CC(C)C[C@H](NC(=O)[C@@H](CCCCNC(=O)c1cccnc1)NC(=O)[C@H](Cc1ccc(O)cc1)N(C)C(=O)[C@H](CO)NC(=O)[C@@H](Cc1cccc2ccccc12)NC(=O)CCc1ccc(F)cc1)C(=O)N[C@@H](CCCCNC(C)C)C(=O)N1CCC[C@H]1C(=O)N[C@H](C)C(N)=O ({Propanoyl(3-(4-F-phenyl))}-[d1Nal]S[NMeY][dK](Nicotinoyl)L[Lys(iPr)]P[dA]-NH2) , result: 0.02
